Hello, the source for this data is patent EP2987533B1, in case you need it.

system: SK-MEL-5; experiment: NCI one-dose SRB growth assay; assay type: cell-based; details: Homo sapiens; SK-MEL-5 (Melanoma), 10^-5 M, 48 h; read-out: % Growth Inhibition (GI %)
measurement name: inhibition at 10 µM

Field inhibition at 10 µM (entry "O=C(O)c1cn(C2CC2)c2cc(N3CCN(S(=O)(=O)c4ccc(Cl)c(Cl)c4)CC3)c(F)cc2c1=O" ) reads 97.9%

// inhibition at 10 µM value for "CCn1cc(C(=O)O)c(=O)c2cc(F)c(N3CCN(S(=O)(=O)c4cccc5ccccc45)CC3)cc21" : > 100%

For "O=C(O)c1cn(C2CC2)c2cc(N3CCN(S(=O)(=O)c4ccc(Cl)cc4Cl)CC3)c(F)cc2c1=O" the compound record lists inhibition at 10 µM as 79.8%

Briefly, inhibition at 10 µM measured for "CCn1cc(C(=O)O)c(=O)c2cc(F)c(N3CCN(S(=O)(=O)c4c(C)cc(C)cc4C)CC3)cc21" : 20.5%

In plain terms, "CCn1cc(C(=O)O)c(=O)c2cc(F)c(N3CCN(S(=O)(=O)c4ccc(Cl)cc4)CC3)cc21" has a documented inhibition at 10 µM of 73.4%

The compound O=c1[nH]cc(F)c(=O)[nH]1 [Compound 5-FU, 5-fluorouracil, reference compound] showed inhibition at 10 µM equal to 33.7%

Note to self: inhibition at 10 µM recorded for "Cc1cc(C)c(S(=O)(=O)N2CCN(c3cc4c(cc3F)c(=O)c(C(=O)O)cn4C3CC3)CC2)c(C)c1" was 45.1%

Recorded result, "CCn1cc(C(=O)O)c(=O)c2cc(F)c(N3CCN(S(=O)(=O)c4ccc(Cl)cc4Cl)CC3)cc21" , inhibition at 10 µM: > 100%

* * *

Test system: UACC-62
Test: NCI one-dose SRB growth assay
Assay type: cell-based
Conditions: Homo sapiens; UACC-62 (Melanoma), 10^-5 M, 48 h; read-out: % Growth Inhibition (GI %)
Description: A primary anticancer assay was performed for an approximately 60 human tumor cell line panel derived from nine neoplastic diseases, in accordance with the protocol of the Drug Evaluation Branch, National Cancer Institute, Bethesda, MD (Monks A. et al., J. Natl. Cancer Inst 1991, 83, 757-766; Boyd M.R. and Paull K.D., Drug. Dev. Res. 1995, 34, 91-109; Shoemaker R.H., Nat. Rev. Cancer 2006, 6, 813-823). […]
Returns one of Yes or No; Yes when inhibition at 10 µM is >= 70%.

Q) Determine whether this compound has inhibition at 10 µM no lower than 70%: "CCn1cc(C(=O)O)c(=O)c2cc(F)c(N3CCN(S(=O)(=O)c4ccc(Cl)cc4)CC3)cc21"
A) Yes

Q) Say whether "CCn1cc(C(=O)O)c(=O)c2cc(F)c(N3CCN(S(=O)(=O)c4ccc(Cl)cc4Cl)CC3)cc21" shows inhibition at 10 µM of 70% or more.
A) Yes

Q) Hello, I need to know if "Cc1cc(C)c(S(=O)(=O)N2CCN(c3cc4c(cc3F)c(=O)c(C(=O)O)cn4C3CC3)CC2)c(C)c1" has measured inhibition at 10 µM not below 70%. Thanks!
A) No

Q) Test whether the compound O=c1[nH]cc(F)c(=O)[nH]1 [Compound 5-FU, 5-fluorouracil, reference compound] records inhibition at 10 µM of 70% or higher.
A) No

Q) Please check the record "CCn1cc(C(=O)O)c(=O)c2cc(F)c(N3CCN(S(=O)(=O)c4c(C)cc(C)cc4C)CC3)cc21" and state if its inhibition at 10 µM is at or above 70%.
A) No

Q) I'd appreciate it if you could say whether "O=C(O)c1cn(C2CC2)c2cc(N3CCN(S(=O)(=O)c4ccc(Cl)cc4Cl)CC3)c(F)cc2c1=O" has inhibition at 10 µM at least equal to 70%.
A) No

* * *

system: 786-0; test: NCI one-dose SRB growth assay; assay type: cell-based; conditions: Homo sapiens; 786-0 (Renal Cancer), 10^-5 M, 48 h; read-out: % Growth Inhibition (GI %)
measurement name: inhibition at 10 µM (%)
Your answer should be a plain number; it is taken to be in %.

Case "CCn1cc(C(=O)O)c(=O)c2cc(F)c(N3CCN(S(=O)(=O)c4ccc(Cl)cc4Cl)CC3)cc21" , 786-0, inhibition at 10 µM recorded as 81.3

// assay 786-0, entry O=c1[nH]cc(F)c(=O)[nH]1 [Compound 5-FU, 5-fluorouracil, reference compound] , inhibition at 10 µM value = 48.7

# value of inhibition at 10 µM, 786-0, item "Cc1cc(C)c(S(=O)(=O)N2CCN(c3cc4c(cc3F)c(=O)c(C(=O)O)cn4C3CC3)CC2)c(C)c1" = 24.4

Value (inhibition at 10 µM, 786-0) for record "CCn1cc(C(=O)O)c(=O)c2cc(F)c(N3CCN(S(=O)(=O)c4cccc5ccccc45)CC3)cc21" = 75.7

Bench note, 786-0: "CCn1cc(C(=O)O)c(=O)c2cc(F)c(N3CCN(S(=O)(=O)c4ccc(Cl)cc4)CC3)cc21" , inhibition at 10 µM reads 76.3

The observed inhibition at 10 µM for "O=C(O)c1cn(C2CC2)c2cc(N3CCN(S(=O)(=O)c4ccc(Cl)c(Cl)c4)CC3)c(F)cc2c1=O" when tested with 786-0 stands at 72.2

* * *

Measured GI50 on COLO 205 follows.
Please format your answer as a value with the unit trailing.

Quick note, GI50 for "CCn1cc(C(=O)O)c(=O)c2cc(F)c(N3CCN(S(=O)(=O)c4ccc(Cl)cc4)CC3)cc21" landed at 2620 nM

Lab note: "CCn1cc(C(=O)O)c(=O)c2cc(F)c(N3CCN(S(=O)(=O)c4cccc5ccccc45)CC3)cc21" gave GI50 of 2020 nM

Sure, the documented GI50 for "O=C(O)c1cn(C2CC2)c2cc(N3CCN(S(=O)(=O)c4ccc(Cl)c(Cl)c4)CC3)c(F)cc2c1=O" is 3500 nM

// "Cc1cc(C)c(S(=O)(=O)N2CCN(c3cc4c(cc3F)c(=O)c(C(=O)O)cn4C3CC3)CC2)c(C)c1" : GI50 value = 3400 nM

The recorded GI50 for entry "CCn1cc(C(=O)O)c(=O)c2cc(F)c(N3CCN(S(=O)(=O)c4ccc(Cl)cc4Cl)CC3)cc21" equals 2440 nM

* * *

Would you mind telling me the reported GI50 of each entry?

Short answer on PRMI-8226 for O=C(O)c1cn(C2CC2)c2cc(N3CCN(S(=O)(=O)c4ccc(Cl)c(Cl)c4)CC3)c(F)cc2c1=O [Compound 3b] , GI50: 2530 nM

Entry CCn1cc(C(=O)O)c(=O)c2cc(F)c(N3CCN(S(=O)(=O)c4ccc(Cl)cc4Cl)CC3)cc21 [Compound 2a] : GI50 on PRMI-8226 = 2550 nM

Cc1cc(C)c(S(=O)(=O)N2CCN(c3cc4c(cc3F)c(=O)c(C(=O)O)cn4C3CC3)CC2)c(C)c1 [Compound 6b] tested on PRMI-8226 gave GI50: 2340 nM

Item: CCn1cc(C(=O)O)c(=O)c2cc(F)c(N3CCN(S(=O)(=O)c4cccc5ccccc45)CC3)cc21 [Compound 7a] | System: PRMI-8226 | GI50: 2790 nM

I looked up CCn1cc(C(=O)O)c(=O)c2cc(F)c(N3CCN(S(=O)(=O)c4ccc(Cl)cc4)CC3)cc21 [Compound 1a] and its GI50 for PRMI-8226 was 3080 nM

* * *

tested on: ovarian cancer; experiment: NCI five-dose SRB assay, subpanel average; details: Homo sapiens, 48 h, read-out: LC50 (median lethal)
measurement name: CC50

CC50 for O=c1[nH]cc(F)c(=O)[nH]1 [Compound 5-FU, 5-fluorouracil, reference compound] is > 100 µM

# compound "CCn1cc(C(=O)O)c(=O)c2cc(F)c(N3CCN(S(=O)(=O)c4cccc5ccccc45)CC3)cc21" ; its CC50 = > 100 µM

Summary for this compound, "Cc1cc(C)c(S(=O)(=O)N2CCN(c3cc4c(cc3F)c(=O)c(C(=O)O)cn4C3CC3)CC2)c(C)c1" : CC50 is > 100 µM

"CCn1cc(C(=O)O)c(=O)c2cc(F)c(N3CCN(S(=O)(=O)c4ccc(Cl)cc4Cl)CC3)cc21" yielded CC50 of 76.7 µM

Summary for this compound, "O=C(O)c1cn(C2CC2)c2cc(N3CCN(S(=O)(=O)c4ccc(Cl)c(Cl)c4)CC3)c(F)cc2c1=O" : CC50 is > 100 µM

Lab note: measured CC50 of "CCn1cc(C(=O)O)c(=O)c2cc(F)c(N3CCN(S(=O)(=O)c4ccc(Cl)cc4)CC3)cc21" was > 100 µM
